Would you mind telling me the reported APOE RNA (% UTC) 33 nM of each entry?
# System: human APOE RNA
# protocolDescription: Dose-dependent reduction of human APOE RNA in HepG2 cells, electroporation, 20,000 cells per well, normalized to PPIA (Example 4, Table 11)
# Format: cell-based
# setupConditions: HepG2 cells, 20,000 cells per well, approximately 24 hours, PPIA-normalized, 33 nM
Strand notation (5' to 3'): a small letter for the sugar, then the base; units joined by * are phosphorothioate-linked, units joined directly phosphodiester-linked; [ ] holds rarer units or linkages, { } end groups; capitals alone tell only the bases. [ms] = mesyl phosphoramidate linkage; e = 2'-O-(2-methoxyethyl) (MOE); k = constrained ethyl (cEt); [5mC] = 5-methylcytosine; d = 2'-deoxy (DNA)
Numbers only, in % UTC.

substance	measurementType	unitsOfMeasure	numericResult
Aks^mCeoTeoTesGesGksTdsGdzAdzAdzTds^mCdsTdsTdsTdsAdzTksTksAesAe (kA*e[5mC]eTeT*eG*kG*dT*dG[ms]dA[ms]dA[ms]dT*d[5mC]*dT*dT*dT*dA[ms]kT*kT*eA*eA) [Compound No. 1809635]	APOE RNA (% UTC) 33 nM	% UTC	78
^mCksTksTksGdzGdzTdzGdzAdzAdzTds^mCdsTdsTdsTdsAdsTdsTksAksAdzAk (antisense k[5mC]*kT*kT*dG[ms]dG[ms]dT[ms]dG[ms]dA[ms]dA[ms]dT*d[5mC]*dT*dT*dT*dA*dT*kT*kA*dA[ms]kA) [Compound No. 1785602]	APOE RNA (% UTC) 33 nM	% UTC	75
Aes^mCeoTeoTesGesGksTdsGdzAdzAdzTds^mCdsTdsTdsTdsAdzTksTksAesAe (eA*e[5mC]eTeT*eG*kG*dT*dG[ms]dA[ms]dA[ms]dT*d[5mC]*dT*dT*dT*dA[ms]kT*kT*eA*eA) [Compound No. 1757576]	APOE RNA (% UTC) 33 nM	% UTC	70

Turning now to a further record.
Data request: Give APOE RNA (% UTC) 33 nM (human APOE RNA) of the following substance: TezTeoGeoGksTdsGdzAdzAdzTds^mCdsTdsTdsTdsAdzTksTksAesAesAes^mCe (antisense eT[ms]eTeGkG*dT*dG[ms]dA[ms]dA[ms]dT*d[5mC]*dT*dT*dT*dA[ms]kT*kT*eA*eA*eA*e[5mC]) [Compound No. 1809814]
Data returned: 95

----------
# System: human APOE RNA
# protocolDescription: Potency (dose response, ED50) in APOE C57BL/6NTac-Apoeem7250 knock-in mice, 4 weeks (Example 14)
# Format: in vivo
# setupConditions: spinal cord, single ICV bolus, GraphPad Prism 10
Strand notation (5' to 3'): a small letter for the sugar, then the base; units joined by * are phosphorothioate-linked, units joined directly phosphodiester-linked; [ ] holds rarer units or linkages, { } end groups; capitals alone tell only the bases. [ms] = mesyl phosphoramidate linkage; e = 2'-O-(2-methoxyethyl) (MOE); k = constrained ethyl (cEt); [5mC] = 5-methylcytosine; d = 2'-deoxy (DNA)
measurementType: ED 50 (μg) Spinal Cord
Answer format: number, then unit.

The following substances have reported results that may help.
substance	ED 50 (μg) Spinal Cord
1746809 (k[5mC]*dT[ms]kT*dG[ms]kG*dT[ms]dG[ms]dA[ms]dA[ms]dT*d[5mC]*dT*dT*dT*dA[ms]dT*dT[ms]kA*kA*kA; antisense) [Compound 1746809]	652.7 µg
1778131: modified oligonucleotide complementary to human APOE RNA (eA*e[5mC]eTeTeGkG*dT*dG[ms]dA[ms]dA*dT*d[5mC]*dT*dT*dT*dA[ms]kTkT*eA*eA; antisense) [compound 1778131]	94.0 µg
1785598: modified oligonucleotide complementary to human APOE RNA (k[5mC]*kT*kT*dG[ms]dG[ms]dT[ms]dG[ms]dA[ms]dA[ms]dT*d[5mC]*dT*dT*dT*dA*dT[ms]kT*kA*dA[ms]kA; antisense) [compound 1785598]	416.7 µg
1778154: modified oligonucleotide complementary to human APOE RNA (e[5mC]*eT*eTeGeGeT*dG[ms]dA[ms]dA*dT*d[5mC]*dT*dT*dT*dA*dT*kTkAeA*eA; antisense) [compound 1778154]	243.1 µg
1757575 (eA*e[5mC]eTeT*kG*kG*dT*dG[ms]dA[ms]dA[ms]dT*d[5mC]*dT*dT*dT*dA[ms]kT*eT*eA*eA; antisense) [Compound 1757575]	84.6 µg
1778130: modified oligonucleotide complementary to human APOE RNA (eA*e[5mC]eTeTeG*kG*dT*dG[ms]dA[ms]dA*dT*d[5mC]*dT*dT*dT*dA[ms]kTkT*eA*eA; antisense) [compound 1778130]	35.9 µg
Aes^mCeoTeoTesGesGksTdsGdzAdzAdzTds^mCdsTdsTdsTdsAdzTksTksAesAe (eA*e[5mC]eTeT*eG*kG*dT*dG[ms]dA[ms]dA[ms]dT*d[5mC]*dT*dT*dT*dA[ms]kT*kT*eA*eA) [Compound No. 1757576]	23.0 µg

Data request: Name the recorded ED 50 (μg) Spinal Cord for 1693105: 6-10-4 MOE gapmer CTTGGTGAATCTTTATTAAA, linkages sosssszzzssssszssss (e[5mC]*eTeT*eG*eG*eT*dG[ms]dA[ms]dA[ms]dT*d[5mC]*dT*dT*dT*dA[ms]dT*eT*eA*eA*eA) [compound 1693105] .
Data returned: 892.8 µg

----------
Record form. Attribute: ED 50 (μg) Cortex. Fill in for each entry.
# Tested on: human APOE RNA
# protocolDescription: Potency (dose response, ED50) in APOE C57BL/6NTac-Apoeem7250 knock-in mice, 4 weeks (Example 14)
# Type: in vivo
# setupConditions: cortex, single ICV bolus, GraphPad Prism 10
Strand notation (5' to 3'): a small letter for the sugar, then the base; units joined by * are phosphorothioate-linked, units joined directly phosphodiester-linked; [ ] holds rarer units or linkages, { } end groups; capitals alone tell only the bases. [ms] = mesyl phosphoramidate linkage; e = 2'-O-(2-methoxyethyl) (MOE); k = constrained ethyl (cEt); [5mC] = 5-methylcytosine; d = 2'-deoxy (DNA)
Give bare numbers, in µg.

substance	tgt	unitsOfMeasure	ED 50 (μg) Cortex
1746809 (k[5mC]*dT[ms]kT*dG[ms]kG*dT[ms]dG[ms]dA[ms]dA[ms]dT*d[5mC]*dT*dT*dT*dA[ms]dT*dT[ms]kA*kA*kA; antisense) [Compound 1746809]	human APOE RNA	µg	446.6

Now let's try a different one.
Data request: Given 1778131: modified oligonucleotide complementary to human APOE RNA (eA*e[5mC]eTeTeGkG*dT*dG[ms]dA[ms]dA*dT*d[5mC]*dT*dT*dT*dA[ms]kTkT*eA*eA; antisense) [compound 1778131] , state its recorded ED 50 (μg) Cortex.
Data returned: 216.5

----------
# System: human APOE RNA
# protocolDescription: Duration of action study in APOE C57BL/6NTac-Apoeem7250 knock-in mice (Example 16)
# Format: in vivo
# setupConditions: spinal cord; 300 μg ICV; 112 days post-dose
# Method: Modified oligonucleotides described above were tested in the APOE C57BL/6NTac-Apoeem7250 knock-in mouse model described above. APOE C57BL/6NTac-Apoeem7250 knock-in mice were divided into groups of 2-4 mice each. […] Mice were sacrificed at various timepoints as indicated in the table below and RNA was extracted from cortical brain tissue and spinal cord for quantitative real-time RT-PCR analysis of RNA expression of APOE using primer probe set RTS3073 (described herein above). […]
Strand notation (5' to 3'): a small letter for the sugar, then the base; units joined by * are phosphorothioate-linked, units joined directly phosphodiester-linked; [ ] holds rarer units or linkages, { } end groups; capitals alone tell only the bases. [PN] = cyclic guanidine phosphoramidate internucleoside linkage; [ms] = mesyl phosphoramidate linkage; e = 2'-O-(2-methoxyethyl) (MOE); k = constrained ethyl (cEt); [5mC] = 5-methylcytosine; d = 2'-deoxy (DNA)
Please go through the items and note down their APOE RNA (% control) Spinal Cord.
Give bare numbers, in % control.

substance	APOE RNA (% control) Spinal Cord
1746799 (k[5mC]*dT[ms]kT*dG[ms]kG*dT[ms]dG[ms]dA[ms]dA[ms]dT*d[5mC]*dT*dT*dT*dA[ms]dT*kT*dA[ms]kA*kA; antisense) [Compound 1746799]	78
1652902: 6-10-4 MOE gapmer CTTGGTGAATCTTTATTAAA, linkages sooooossssssssssoss (antisense e[5mC]*eTeTeGeGeTdG*dA*dA*dT*d[5mC]*dT*dT*dT*dA*dT*eTeA*eA*eA) [compound 1652902]	32

Give APOE RNA (% control) Spinal Cord for all substances that follow.
1. 1746803 (k[5mC]*dT[ms]dT[ms]kG*dG[ms]kT*dG[ms]dA[ms]dA[ms]dT*d[5mC]*dT*dT*dT*dA[ms]dT*kT*dA[ms]kA*kA; antisense) [Compound 1746803]
2. 1721303: 6-10-4 MOE gapmer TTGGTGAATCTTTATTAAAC, linkages s[pn][pn][pn]oossssssssssoss (eT*eT[PN]eG[PN]eG[PN]eTeGdA*dA*dT*d[5mC]*dT*dT*dT*dA*dT*dT*eAeA*eA*e[5mC]) [compound 1721303]
3. 1652901: 6-10-4 MOE gapmer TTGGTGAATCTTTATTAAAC, linkages sooooossssssssssoss (antisense eT*eTeGeGeTeGdA*dA*dT*d[5mC]*dT*dT*dT*dA*dT*dT*eAeA*eA*e[5mC]) [compound 1652901]
4. 1721304: 6-10-4 MOE gapmer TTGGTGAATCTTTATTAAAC, linkages s[pn][pn][pn]oosssssszzssoss (eT*eT[PN]eG[PN]eG[PN]eTeGdA*dA*dT*d[5mC]*dT*dT*dT[ms]dA[ms]dT*dT*eAeA*eA*e[5mC]) [compound 1721304]
5. 1721305: 6-10-4 MOE gapmer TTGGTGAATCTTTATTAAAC, linkages s[pn][pn][pn]oossssssssss[pn]ss (eT*eT[PN]eG[PN]eG[PN]eTeGdA*dA*dT*d[5mC]*dT*dT*dT*dA*dT*dT*eA[PN]eA*eA*e[5mC]) [compound 1721305]
6. 1721307: 6-10-4 MOE gapmer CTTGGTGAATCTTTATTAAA, linkages s[pn][pn][pn]oossssssssssoss (e[5mC]*eT[PN]eT[PN]eG[PN]eGeTdG*dA*dA*dT*d[5mC]*dT*dT*dT*dA*dT*eTeA*eA*eA) [compound 1721307]

Data returned:
[74, 40, 51, 42, 40, 34]

Respectfully, I request APOE RNA (% control) Spinal Cord for each entry included below.
1. 1721308: 6-10-4 MOE gapmer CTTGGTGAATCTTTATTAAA, linkages s[pn][pn][pn]oossssssszzsoss (e[5mC]*eT[PN]eT[PN]eG[PN]eGeTdG*dA*dA*dT*d[5mC]*dT*dT*dT[ms]dA[ms]dT*eTeA*eA*eA) [compound 1721308]
2. 1721310: 6-10-4 MOE gapmer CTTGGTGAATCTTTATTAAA, linkages s[pn][pn][pn]oossssssszzs[pn]ss (e[5mC]*eT[PN]eT[PN]eG[PN]eGeTdG*dA*dA*dT*d[5mC]*dT*dT*dT[ms]dA[ms]dT*eT[PN]eA*eA*eA) [compound 1721310]
3. 1746809 (k[5mC]*dT[ms]kT*dG[ms]kG*dT[ms]dG[ms]dA[ms]dA[ms]dT*d[5mC]*dT*dT*dT*dA[ms]dT*dT[ms]kA*kA*kA; antisense) [Compound 1746809]

Data returned:
[42, 65, 86]

For every item below, please supply its APOE RNA (% control) Spinal Cord.
1. 1746810 (k[5mC]*dT[ms]kT*dG[ms]dG[ms]kT*dG[ms]dA[ms]dA[ms]dT*d[5mC]*dT*dT*dT*dA[ms]dT*dT[ms]kA*kA*kA; antisense) [Compound 1746810]
2. 1721309: 6-10-4 MOE gapmer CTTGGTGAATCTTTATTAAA, linkages s[pn][pn][pn]oossssssssss[pn]ss (e[5mC]*eT[PN]eT[PN]eG[PN]eGeTdG*dA*dA*dT*d[5mC]*dT*dT*dT*dA*dT*eT[PN]eA*eA*eA) [compound 1721309]

Data returned:
[80, 39]
